# System tested: Recombinant human his-tagged IGF R extracellular domain protein (human) (UniProt P08069)
# Protocol description: SPR, Ab captured via anti-huIgG Fc, dissociation at pH 6
Note to self: kon under 90000 M⁻¹ s⁻¹ means satisfied, ties and anything higher get not satisfied.

{"Binder": "VRDN-02040 (antibody, V domains shown) VH: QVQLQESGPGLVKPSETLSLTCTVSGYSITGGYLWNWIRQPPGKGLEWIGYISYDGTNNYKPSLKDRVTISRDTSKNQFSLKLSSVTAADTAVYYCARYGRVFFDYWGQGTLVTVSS VL: DIVMTQSPLSLPVTPGEPASISCRSSQSIVHSNGNHYLQWYLQKPGQSPQLLIYKVSNRLYGVPDRFSGSGSGTDFTLKISRVEAEDVGVYYCFQGSHVPWTFGQGTKVEIK", "Group": "satisfied"}
{"Binder": "VRDN-02018 (antibody, V domains shown) VH: QVQLQESGPGLVKPSETLSLTCTVSGYSITGGYLWNWIRQPPGKGLEWIGYISYDGHNNYKPSLKDRVTISRDTSKNQFSLKLSSVTAADTAVYYCARYGRVFFDYWGQGTLVTVSS VL: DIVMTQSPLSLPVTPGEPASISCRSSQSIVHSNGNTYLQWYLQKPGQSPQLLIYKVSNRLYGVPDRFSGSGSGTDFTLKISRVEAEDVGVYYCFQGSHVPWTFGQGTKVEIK", "Group": "satisfied"}
{"Binder": "VRDN-02009 (antibody, V domains shown) VH: QVQLQESGPGLVKPSETLSLTCTVSGYSITGGYHWNWIRQPPGKGLEWIGYISYDGTNNYKPSLKDRVTISRDTSKNQFSLKLSSVTAADTAVYYCARYGRVFFDYWGQGTLVTVSS VL: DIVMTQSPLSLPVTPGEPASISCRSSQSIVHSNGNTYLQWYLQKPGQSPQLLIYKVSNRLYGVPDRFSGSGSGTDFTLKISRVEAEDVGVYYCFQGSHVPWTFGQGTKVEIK", "Group": "satisfied"}
{"Binder": "VRDN-02063 (antibody, V domains shown) VH: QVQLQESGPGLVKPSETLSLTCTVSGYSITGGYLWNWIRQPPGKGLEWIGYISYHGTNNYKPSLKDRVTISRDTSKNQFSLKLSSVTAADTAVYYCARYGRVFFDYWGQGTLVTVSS VL: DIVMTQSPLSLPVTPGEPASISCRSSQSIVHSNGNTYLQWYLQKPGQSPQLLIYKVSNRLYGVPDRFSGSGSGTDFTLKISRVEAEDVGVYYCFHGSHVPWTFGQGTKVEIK", "Group": "not satisfied"}
{"Binder": "VRDN-02032 (antibody, V domains shown) VH: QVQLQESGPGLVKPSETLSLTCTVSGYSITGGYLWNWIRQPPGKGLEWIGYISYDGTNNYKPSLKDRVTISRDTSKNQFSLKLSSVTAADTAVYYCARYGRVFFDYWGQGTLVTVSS VL: DIVMTQSPLSLPVTPGEPASISCRSSHSIVHSNGNTYLQWYLQKPGQSPQLLIYKVSNRLYGVPDRFSGSGSGTDFTLKISRVEAEDVGVYYCFQGSHVPWTFGQGTKVEIK", "Group": "not satisfied"}
